Assay: recombinant UMI read abundance after kanamycin selection (control-corrected) (log10(CPM+1)); higher = more efficient recombination; extreme values may be limits of the assay; sequences stand for … in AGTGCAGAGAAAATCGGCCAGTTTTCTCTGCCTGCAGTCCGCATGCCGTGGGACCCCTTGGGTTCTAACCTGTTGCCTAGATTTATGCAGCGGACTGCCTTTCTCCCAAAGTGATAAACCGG…AGGTTGGTTTCACT; site = the 11-nt donor
Assay Metric: recombinant UMI read abundance (log10)
Please state the value as a number alone, without comment.

## Task What value of recombinant UMI read abundance (log10) has been reported for the following sequence? ATAAGGCCATGGACCGGTTTTCCCGGTAATCCGTATTTGAC (site ATACGGCCTGT)
## Result 0

## Task Another sequence: CTGCGTGCATGGACCGGTTTTCCCGGTAATCCGTATTTGTA (site CTGCGTGCTTA)
## Result 2.28

## Task Another sequence: CAACCTGCATGGACCGGTTTTCCCGGTAATCCGTATTTGGC (site CAACCTGCTGC)
## Result 0

## Task Another sequence: AGGACTACATGGACCGGTTTTCCCGGTAATCCGTATTTGCT (site AGGACTACTAG)
## Result 2.5

## Task Another sequence: CCTAATACATGGACCGGTTTTCCCGGTAATCCGTATTTGGA (site CCTAATACTAC)
## Result 0

## Task Another sequence: CCAGGTGCATGGACCGGTTTTCCCGGTAATCCGTATTTGAT (site CAAGGTGCTAT)
## Result 0.441

## Task Another sequence: CCCTTCTCATGGACCGGTTTTCCCGGTAATCCGTATTTGAG (site CCCTTCTCTCA)
## Result 0.00351

## Task Another sequence: TCATTCTCATGGACCGGTTTTCCCGGTAATCCGTATTTGCT (site TCATTCTCTAG)
## Result 0.981

## Task Another sequence: AGAAAGACATGGACCGGTTTTCCCGGTAATCCGTATTTGTA (site AGGAAGACTTG)
## Result 0

## Task Another sequence: TAAAGTCCATGGACCGGTTTTCCCGGTAATCCGTATTTGCA (site TAAAGTCCTTT)
## Result 0

## Task Another sequence: GAATAGACATGGACCGGTTTTCCCGGTAATCCGTATTTGCC (site GCATAGACTGG)
## Result 1.73

## Task Another sequence: CGGGAGCCATGGACCGGTTTTCCCGGTAATCCGTATTTGAT (site CGGGAACCTAT)
## Result 0

## Task Another sequence: TCGACGGCATGGACCGGTTTTCCCGGTAATCCGTATTTGAG (site TCGACGGCTCT)
## Result 0.666

## Task Another sequence: GTGGGTACATGGACCGGTTTTCCCGGTAATCCGTATTTGTG (site GTGGGTACTCA)
## Result 1.46

## Task Another sequence: TCCATTTCATGGACCGGTTTTCCCGGTAATCCGTATTTGCC (site TCCAGTTCTGG)
## Result 0

* * *

Test: recombinant barcode read abundance after kanamycin selection (control-corrected) (log10(CPM+1)); higher = more efficient recombination; sequences stand for … in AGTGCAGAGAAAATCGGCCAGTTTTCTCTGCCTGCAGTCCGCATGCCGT…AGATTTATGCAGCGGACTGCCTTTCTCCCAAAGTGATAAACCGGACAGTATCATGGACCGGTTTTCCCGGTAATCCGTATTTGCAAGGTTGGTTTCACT; site = the 11-nt target
Task for the reader: assign each of the following sequences its reported recombinant barcode read abundance (log10).
Please state the value as a number alone, without comment.

## Task What value of recombinant barcode read abundance (log10) has been reported for the following sequence? GAGCAACCTTGGGTTCTAACCTGTTGCTT (site ATAAGCTCTCG)
## Result 0.25

## Task Another sequence: CTATTAGCTTGGGTTCTAACCTGTTGCCG (site CTAGTAGCTCG)
## Result 0.418

## Task Another sequence: AATTGAGCTTGGGTTCTAACCTGTTGCCT (site AATTGAGCTAG)
## Result 0.887

## Task Another sequence: TTGCATCCTTGGGTTCTAACCTGTTGCAG (site TTGCATCCTCT)
## Result 0.802

## Task Another sequence: TCCATAACTTGGGTTCTAACCTGTTGCCT (site GGGGCGTCTCA)
## Result 0.0285

* * *

Assay: recombinant UMI read abundance after kanamycin selection (control-corrected) (log10(CPM+1)); higher = more efficient recombination; extreme values may be limits of the assay; sequences stand for … in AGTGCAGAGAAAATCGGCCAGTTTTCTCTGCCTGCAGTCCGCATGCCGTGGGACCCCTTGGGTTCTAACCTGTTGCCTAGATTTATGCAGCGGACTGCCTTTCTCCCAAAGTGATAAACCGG…AGGTTGGTTTCACT; site = the 11-nt donor
Assay Metric: recombinant UMI read abundance (log10)

## Task What value of recombinant UMI read abundance (log10) has been reported for the following sequence? CAGTATCCATGGACCGGTTTTCCCGGTAATCCGTATTTGTT (site CAGTATCCTAA)
## Result 1.87

## Task Another sequence: GAGGCTACATGGACCGGTTTTCCCGGTAATCCGTATTTGTG (site GAGGCTACTCA)
## Result 1.4

## Task Another sequence: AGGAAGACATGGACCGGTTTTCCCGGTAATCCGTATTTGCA (site AGGAGGCCTTG)
## Result 0

## Task Another sequence: GAGAATACATGGACCGGTTTTCCCGGTAATCCGTATTTGCA (site GAGAATACTTG)
## Result 2.23

## Task Another sequence: GGCCACCCATGGACCGGTTTTCCCGGTAATCCGTATTTGTT (site GGCCACCCTGA)
## Result 0

## Task Another sequence: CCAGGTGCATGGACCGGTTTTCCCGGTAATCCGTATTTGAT (site CCAGGGGCTAT)
## Result 1.32

## Task Another sequence: ACCTCGTCATGGACCGGTTTTCCCGGTAATCCGTATTTGAA (site ACCTCGTCTTT)
## Result 0.5

## Task Another sequence: GCTTGCCCATGGACCGGTTTTCCCGGTAATCCGTATTTGAA (site GCTTGCCCTTT)
## Result 0.0264

## Task Another sequence: ATGTAGACATGGACCGGTTTTCCCGGTAATCCGTATTTGGC (site ATGTAGCCTGC)
## Result 0

* * *

Test: recombinant UMI read abundance after kanamycin selection (control-corrected) (log10(CPM+1)); higher = more efficient recombination; extreme values may be limits of the assay; sequences stand for … in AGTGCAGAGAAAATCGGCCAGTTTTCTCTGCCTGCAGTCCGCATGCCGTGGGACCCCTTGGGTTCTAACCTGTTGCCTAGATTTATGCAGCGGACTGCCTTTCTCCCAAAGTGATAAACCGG…AGGTTGGTTTCACT; site = the 11-nt donor
Task for the reader: assign each of the following sequences its reported recombinant UMI read abundance (log10).
Please state the value as a number alone, without comment.

## Task What value of recombinant UMI read abundance (log10) has been reported for the following sequence? ATTCAGACATGGACCGGTTTTCCCGGTAATCCGTATTTGGT (site ATTCAGACTAC)
## Result 0.566

## Task Another sequence: CCTAAATCATGGACCGGTTTTCCCGGTAATCCGTATTTGAT (site CCTAAACCTAT)
## Result 0

## Task Another sequence: AGAGTCACATGGACCGGTTTTCCCGGTAATCCGTATTTGAG (site AGAGTCACTCT)
## Result 2.34

## Task Another sequence: GCGAAAACATGGACCGGTTTTCCCGGTAATCCGTATTTGCT (site ACGAAAACTAG)
## Result 2.25

## Task Another sequence: AATTTTGCATGGACCGGTTTTCCCGGTAATCCGTATTTGGA (site AATTATGCTTC)
## Result 0.473

## Task Another sequence: GTGGAGGCATGGACCGGTTTTCCCGGTAATCCGTATTTGAG (site GTGGAGGCTCC)
## Result 0.297

## Task Another sequence: TGTTGATCATGGACCGGTTTTCCCGGTAATCCGTATTTGAG (site TGTTGATCTCT)
## Result 1.22

## Task Another sequence: AGATGTTCATGGACCGGTTTTCCCGGTAATCCGTATTTGTT (site AGATGTTCTAA)
## Result 1.45

## Task Another sequence: CTCTCGACATGGACCGGTTTTCCCGGTAATCCGTATTTGAC (site CTCTCGACTGT)
## Result 1.34

## Task Another sequence: AGGTTACCATGGACCGGTTTTCCCGGTAATCCGTATTTGTG (site AGGTTCCCTCA)
## Result 0

## Task Another sequence: GCAACTGCATGGACCGGTTTTCCCGGTAATCCGTATTTGCC (site GCTACTGCTGG)
## Result 0

## Task Another sequence: TAATCACCATGGACCGGTTTTCCCGGTAATCCGTATTTGAG (site TAATCACCTCT)
## Result 0.0222

## Task Another sequence: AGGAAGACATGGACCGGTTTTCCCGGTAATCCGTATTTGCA (site TCGAAGACTTG)
## Result 1.81

## Task Another sequence: GCCACCGCATGGACCGGTTTTCCCGGTAATCCGTATTTGCG (site TCCACCGCTCG)
## Result 0.00586

## Task Another sequence: GCAGGCGCATGGACCGGTTTTCCCGGTAATCCGTATTTGGT (site GCAGGCGCTAC)
## Result 0.864

## Task Another sequence: GTTCGTACATGGACCGGTTTTCCCGGTAATCCGTATTTGGG (site GTTCGTACTCC)
## Result 0.0129

## Task Another sequence: TGGGGTACATGGACCGGTTTTCCCGGTAATCCGTATTTGGG (site TGGGGTACTCC)
## Result 0.0151

## Task Another sequence: GCGAAGCCATGGACCGGTTTTCCCGGTAATCCGTATTTGCG (site GCGAAGCCTCG)
## Result 0.845

## Task Another sequence: CTAGTCTCATGGACCGGTTTTCCCGGTAATCCGTATTTGTC (site CTAGTATCTGT)
## Result 0.445

## Task Another sequence: GGTACGTCATGGACCGGTTTTCCCGGTAATCCGTATTTGTT (site GGTACTTCTAA)
## Result 0

## Task Another sequence: ATGCCACCATGGACCGGTTTTCCCGGTAATCCGTATTTGTA (site ATGCCACCTTA)
## Result 0

## Task Another sequence: CGAGGAACATGGACCGGTTTTCCCGGTAATCCGTATTTGGG (site CGAGGAACTCC)
## Result 1.53

## Task Another sequence: GCCAATCCATGGACCGGTTTTCCCGGTAATCCGTATTTGAA (site GACAATCCTTT)
## Result 0.01

## Task Another sequence: CTCCCTACATGGACCGGTTTTCCCGGTAATCCGTATTTGAA (site CTCCCTACTCT)
## Result 0.0285

## Task Another sequence: TTGCCTTCATGGACCGGTTTTCCCGGTAATCCGTATTTGGT (site TCGCCTTCTAC)
## Result 0.00778

## Task Another sequence: TTCGGATCATGGACCGGTTTTCCCGGTAATCCGTATTTGCT (site TTCGGATCTAG)
## Result 0

## Task Another sequence: GACTGGCCATGGACCGGTTTTCCCGGTAATCCGTATTTGCA (site GATTGGCCTTG)
## Result 0.0169

## Task Another sequence: CGATCGACATGGACCGGTTTTCCCGGTAATCCGTATTTGTT (site CGATCGACTAC)
## Result 0.0194
